Here the recorded GI50 is given for each entry.
# System: OVCAR-5
# experiment summary: NCI tumour cell line growth inhibition, 48 h
The source made the active and inactive calls. No stated cut-off is given here; in the data, active = GI50 up to about 1.1 µM and inactive = higher.

{"compound": "COCCCNC(=O)C1C(=O)C(=O)N(CCCOC)C1=O (centres undefined)", "GI50": "> 100 µM (inactive)"}
{"compound": "c1ccc2[nH]c(-c3cscn3)nc2c1 [THIABENDAZOLE]", "GI50": "> 100 µM (inactive)"}
{"compound": "CC[C@@H](C(=O)[C@@H](C)[C@@H](O)[C@H](C)CCc1ccc(C)c(O)c1C(=O)O)[C@H]1O[C@](CC)([C@H]2CC[C@](O)(CC)[C@H](C)O2)C[C@@H]1C [LASALOCID A SODIUM]", "GI50": "6.47 µM (inactive)"}
{"compound": "CCNC(=S)N/N=C(\\C)c1cccc(C)n1", "GI50": "9.31 µM (inactive)"}
{"compound": "CCC(=O)NI1OC(=O)c2ccccc21", "GI50": "> 100 µM (inactive)"}
{"compound": "C[C@H](CCc1nc(C#N)c(N)o1)[C@H]1CC[C@H]2[C@@H]3[C@@H](O)CC4C[C@@H](O)CC[C@]4(C)[C@H]3C[C@@H](O)[C@]12C (some centres undefined)", "GI50": "23.3 µM (inactive)"}
{"compound": "CCOS(C)(=O)=O [METHANESULFONIC ACID ETHYL ESTER]", "GI50": "> 100 µM (inactive)"}
{"compound": "Cc1cc(C)c(C2CC(O)C(CO)O2)cc1C (centres undefined)", "GI50": "> 100 µM (inactive)"}
{"compound": "c1ccc2sc(SCCSc3nc4ccccc4s3)nc2c1", "GI50": "> 100 µM (inactive)"}
